- Test system: HEK293T cells
- run-description: Expression efficiency of capped luciferase mRNAs in HEK293T cells
- Type: cell-based
- measurement-context: 6 h after transfection of capped luciferase mRNA, 0.5 µg per well; reading of N-7413 = 1 (Table 3)
Listed next: entries and their corresponding Relative fluorescence reading.
metric: Relative fluorescence reading

• CO[C@@H]1[C@H](OP(=O)([O-])OC[C@H]2O[C@@H](n3cnc4c(=O)[nH]c(N)nc43)[C@H](O)[C@@H]2O)[C@@H](COP(=O)(O)OP(=O)(O)OP(=O)(O)OC[C@H]2O[C@@H](n3c[n+](C)c4c(=O)[nH]c(N)nc43)[C@H](O)[C@@H]2CC(=O)NCCNC(=O)CCCC[C@@H]2SC[C@@H]3NC(=O)N[C@@H]32)O[C@H]1n1cnc2c(N)ncnc21 = 1.47
• CO[C@@H]1[C@H](OP(=O)([O-])OC[C@H]2O[C@@H](n3cnc4c(=O)[nH]c(N)nc43)[C@H](O)[C@@H]2O)[C@@H](COP(=O)(O)OP(=O)(O)OP(=O)(O)OC[C@H]2O[C@@H](n3c[n+](C)c4c(=O)[nH]c(N)nc43)[C@H](O)[C@@H]2Cn2cc(CNC(=O)CCCC[C@@H]3SC[C@@H]4NC(=O)N[C@@H]43)nn2)O[C@H]1n1cnc2c(N)ncnc21 = 1.81
• COCCOCCOCCOCCOCC(=O)NC[C@H]1[C@@H](O)[C@H](n2c[n+](C)c3c(=O)[nH]c(N)nc32)O[C@@H]1COP(=O)([O-])OP(=O)(O)OP(=O)(O)OC[C@H]1O[C@@H](n2cnc3c(N)ncnc32)[C@H](OC)[C@@H]1OP(=O)(O)OC[C@H]1O[C@@H](n2cnc3c(=O)[nH]c(N)nc32)[C@H](O)[C@@H]1O = 1.90

* * *

Listed next: entries and their corresponding Relative fluorescence reading.
- System: HEK293T cells
- run-description: Expression efficiency of capped luciferase mRNAs in HEK293T cells
- Assay type: cell-based
- measurement-context: 6 h after transfection of capped luciferase mRNA; reading of N-7413 = 1 (Table 5)
metric: Relative fluorescence reading

- CO[C@@H]1[C@H](OP(=O)([O-])OC[C@H]2O[C@@H](n3cnc4c(=O)[nH]c(N)nc43)[C@H](O)[C@@H]2O)[C@@H](COP(=O)(O)OP(=O)(O)OP(=O)(O)OC[C@H]2O[C@@H](n3c[n+](C)c4c(=O)[nH]c(N)nc43)[C@H](O)[C@@H]2OC)O[C@H]1n1cnc2c(N)ncnc21 [Compound N-7413, reference compound]: 1.00
- COCC1(N=[N+]=[N-])C(COP(=O)(O)OP(=O)(O)OP(=O)(O)OCC2OC(n3cnc4c(N)ncnc43)C(OC)C2OP(=O)([O-])OCC2OC(n3cnc4c(=O)[nH]c(N)nc43)C(O)C2O)OC(n2c[n+](C)c3c(=O)[nH]c(N)nc32)C1O (stereo not shown): 1.35
- CO[C@@H]1[C@H](OP(=O)([O-])OC[C@H]2O[C@@H](n3cnc4c(=O)[nH]c(N)nc43)[C@H](O)[C@@H]2O)[C@@H](COP(=O)(O)OP(=O)(O)OP(=O)(O)OC[C@H]2O[C@@H](n3c[n+](C)c4c(=O)[nH]c(N)nc43)[C@H](O)[C@]2(F)C(=O)N(C)C)O[C@H]1n1cnc2c(N)ncnc21: 1.63
- COC1C(OP(=O)([O-])OCC2OC(n3cnc4c(=O)[nH]c(N)nc43)C(O)C2O)C(COP(=O)(O)OP(=O)(O)OP(=O)(O)OCC2OC(n3c[n+](C)c4c(=O)[nH]c(N)nc43)C(O)C2(F)CN=[N+]=[N-])OC1n1cnc2c(N)ncnc21 (stereo not shown): 1.23
- CC[n+]1cn(C2OC(COP(=O)(O)OP(=O)(O)OP(=O)(O)OCC3OC(n4cnc5c(N)ncnc54)C(OC)C3OP(=O)([O-])OCC3OC(n4cnc5c(=O)[nH]c(N)nc54)C(O)C3O)C(F)(COC)C2O)c2nc(N)[nH]c(=O)c21 (stereo not shown): 1.52
- COC[C@]1(F)[C@@H](COP(=O)(O)OP(=O)(O)OP(=O)(O)OC[C@H]2O[C@@H](n3cnc4c(N)ncnc43)[C@H](OC)[C@@H]2OP(=O)([O-])OC[C@H]2O[C@@H](n3cnc4c(=O)[nH]c(N)nc43)[C@H](O)[C@@H]2O)O[C@@H](n2c[n+](C)c3c(=O)[nH]c(N)nc32)[C@@H]1O [Compound D1]: 2.07
- COCC1(F)C(COP(=O)(O)OP(=O)(O)OP(=O)(O)OP(=O)(O)OCC2OC(n3cnc4c(N)ncnc43)C(OC)C2OP(=O)([O-])OCC2OC(n3cnc4c(=O)[nH]c(N)nc43)C(O)C2O)OC(n2c[n+](C)c3c(=O)[nH]c(N)nc32)C1O (stereo not shown): 1.12
